- Tested on: OVCAR-5 ovarian
- procedure-details: NCI-60 one-dose screen, 48 h (100 = growth as untreated, 0 = no growth, -100 = all killed)
- measurement-conditions: 10 µM unless noted
Compounds without any hit were thinned out: in the full panel of roughly 83,000, 20% have a hit.
measurement-label: growth (%)
Respond numerically; units are % and should not be typed.

Sample records with growth:
compound	subject-of-test	growth, %
COC(=O)c1cc(-c2ccc(S(C)(=O)=O)cc2)[nH]c1N/N=C/c1c(Cl)cccc1Cl	OVCAR-5 ovarian	42.6
COC(=O)c1c2c(c(C)[n+]([O-])c1C)C(=O)C(NCc1ccc(Cl)cc1)=CC2=O	OVCAR-5 ovarian	97.3
CN(CCn1sc(=O)n(Cc2ccccc2)c1=O)Cc1ccc2c(Cl)cc(Cl)c(O)c2n1	OVCAR-5 ovarian	61.4
COc1ccc(/C(C)=C(/c2ccc(OCCCN(C)C)cc2)c2ccc(OC(=O)Cc3ccccc3)cc2)cc1	OVCAR-5 ovarian	85.2
COc1cc2c(c(OC)c1OC)CCC(c1cccc(C(=O)Nc3cccc(Br)c3)c1)O2 (centres undefined)	OVCAR-5 ovarian	81.3

# query: growth of entry `Cc1noc(C)c1C(=O)OCc1coc2ccccc2c1=O` 71.6

growth lookup needed for `O=Cc1ccc([N+](=O)[O-])s1` , thanks. 93.7

growth for `Clc1ccc(Nc2nnc(COc3ccccc3)c3ccccc23)cc1` ? 23.1

Can you look up the measured growth of `CCCCCCCCn1ccc2cc(NC(=O)Cn3cc(CN4CCCCC4)nn3)ccc21` for me? 73.7

Query (compound): CCCCCCC1(C)NCCO1 (centres undefined) ; field requested: growth 110

# input compound: CC(=O)N1N=C(c2ccc(Nc3nc(Nc4ccc(Cl)cc4)nc(Nc4ccc(Cl)cc4)n3)cc2)CC1c1ccco1 (centres undefined) ; wanted: its growth 105

Given `O=C(CCc1nnc(Cn2cnc3nc[nH]c3c2=O)o1)c1nc2ncccc2[nH]1` , state its recorded growth. 100

Consider the compound `Cc1cc2c(O)c(-c3cc(Cl)ccc3Cl)c3sc(=O)oc3c2cc1C` and give its measured growth. 106

Please give the measured growth for this compound: `C=C(C)[C@@H]1CC[C@]2(C(=O)O)CC[C@]3(C)[C@H](CC[C@@H]4[C@@]5(C)C[C@@H](Cc6cn(CCO[C@@H]7O[C@H](COC(C)=O)[C@H](OC(C)=O)[C@H](OC(C)=O)[C@H]7OC(C)=O)nn6)[C@H](O)C(C)(C)[C@@H]5CC[C@]43C)[C@@H]12` 97.3

Entry COc1ccc(CC(C#N)c2cc3ccccc3[nH]2)cc1 (centres undefined) has what growth? 94.1

// growth lookup, key: Cc1ccc(S(=O)(=O)N2CCCC2CO)cc1 (centres undefined) 85.7

I would be grateful if you could share the reported growth for `CN1CCN(c2ccc(NC(=O)c3nc4ccc5[nH]ncc5c4c4c3CCCC4)cc2C(F)(F)F)CC1` . 85.5

I would be grateful if you could share the reported growth for `Oc1c(Cl)cc(Cl)c2ccc(Cn3cc(-c4ccc(C(F)(F)F)cc4)nn3)nc12` . 88.7

Suppose we examine the compound `COc1ccc(Cc2cc(-c3ccccc3)nn(Cc3ccccc3)c2=O)cc1OC` ; what growth value has been reported? 68.3

====

- Test system: OVCAR-3 ovarian
- procedure-details: NCI-60 one-dose screen, 48 h (100 = growth as untreated, 0 = no growth, -100 = all killed)
- measurement-conditions: 10 µM unless noted
This is part of a sample that, as a whole, favours compounds with a hit. Of some 83,000 tested, about 20% had one in any assay. Activity calls are given as the source filed them. The calls were made as follows: active = growth percent below 10; inactive = the rest.
measurement-label: growth

Use these answered entries as a reference point.
>>> df
                                   compound  measurement_label          measured
0  C[C@]12CC[C@@H]3c4ccc(O)c([N+](=O)[O-])c4CC[C@H]3[C@@H]1CCC2=O             growth   104% (inactive)
1  Cc1cccc(Cl)c1NC(=O)c1ccc2nc(NC(=O)NCCN(C)C)sc2c1             growth   114% (inactive)
2  Cn1c(=O)c2c(nc(NC3=NS(=O)(=O)c4ccccc43)n2CC(=O)N2CCc3ccccc32)n(C)c1=O             growth   110% (inactive)
3       Cc1ccc(NC(=S)NNC(=S)NNc2ccccc2)cc1C             growth  73.9% (inactive)
4  S=C(Nc1ccc(-c2nc(N3CCOCC3)c3cccn3n2)cc1)Nc1cccnc1             growth  39.6% (inactive)
5  COc1cc(-c2cc(-c3cccs3)c(C#N)c(N3CCOCC3)n2)cc(OC)c1OC             growth   149% (inactive)
6  Cc1nc2sc(C(=O)Nc3cccc(Cl)c3C)c(N)c2cc1C(=O)c1ccccc1             growth   -19.1% (active)
7  Cc1cccc2c1NC(=O)C2(c1ccc(O)cc1)c1ccc(O)cc1             growth  25.6% (inactive)

Fill in the blank: the reported growth of N#CC1CCc2c(c(-c3cn[nH]c3C(F)(F)F)nc3c(F)cc4[nH]ncc4c23)C1 (stereo not given) is ____. 16.6% (inactive)

Dear colleague, I am looking for the recorded growth of the following compound: `CC(=O)N(N=Nc1ccccc1)c1cccc2ccccc12` 125% (inactive)
